systemUnderTest: human A2a receptor (Homo sapiens)
Sequence (P29274 whole entry): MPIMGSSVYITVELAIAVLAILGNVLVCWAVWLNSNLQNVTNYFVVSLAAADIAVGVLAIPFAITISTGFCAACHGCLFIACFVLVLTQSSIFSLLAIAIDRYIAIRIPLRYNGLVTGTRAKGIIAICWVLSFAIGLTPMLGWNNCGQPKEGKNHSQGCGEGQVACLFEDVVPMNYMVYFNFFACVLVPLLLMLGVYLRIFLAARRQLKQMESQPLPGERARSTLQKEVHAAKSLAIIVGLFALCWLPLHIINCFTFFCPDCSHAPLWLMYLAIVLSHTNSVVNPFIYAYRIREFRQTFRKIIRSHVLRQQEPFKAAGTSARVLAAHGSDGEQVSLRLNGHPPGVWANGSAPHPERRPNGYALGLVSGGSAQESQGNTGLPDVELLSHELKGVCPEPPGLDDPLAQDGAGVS
pKi: −log10 of the molar value.
Outcome: class 1 for pKi of at least 7; class 0 for anything lower.

Nc1nc(-n2nccn2)c(Cl)nc1C(=O)NCc1cccc2cccnc12: class 1
Cc1nc(C(=O)NC(C)(C)c2ccncc2)c(N)nc1-c1cnco1: class 0
Cc1nc(C(=O)NC2CCCC(O)CC2)c(N)nc1-c1ncco1 (single isomer, unassigned) [Ex-165B]: class 1
Cc1nc(C(=O)NCc2nc(C)c(C)n2C)c(N)nc1-c1ncco1: class 1
COc1ccc2c(c1)CCC2NC(=O)c1nc(C)c(-c2ncco2)nc1N (single isomer, unassigned) [Ex-231A]: class 1

**Q:** Check if pKi >= 7 (inclusive). Item: `COc1cccnc1CNC(=O)c1nc(C)c(-c2ncco2)nc1N`
**A:** class 1

**Q:** # bool: pKi of `Cc1cnn(-c2nc(N)c(C(=O)NCc3ccc4[nH]ccc4c3)nc2Cl)c1` >= 7
**A:** class 0

Data origin: patent US10472347B2
